- procedure summary: Example 2: cell number and viability
- Format: cell-based, Chinese hamster
- condition label: Chinese hamster, CHO cell line 25H9 producing IL-1R-II, 30° C., 15 μM decitabine, day 8
reported endpoint: viability at 8 day, 15 μM (%)
Value expressed in %; do not type the unit.

Asked: Which viability at 8 day, 15 μM is listed for Nc1ncn([C@H]2C[C@H](O)[C@@H](CO)O2)c(=O)n1 [decitabine, 5-aza-2′-deoxycytidine] ?
Given back: 33.2

====

- procedure summary: Example 1: cell number (hemocytometer) and viability (trypan blue)
- Format: cell-based, Chinese hamster
- condition label: Chinese hamster, 34° C., 10 μM decitabine, day 3
reported endpoint: viability at 3 day, 10 μM (%)
Value expressed in %; do not type the unit.

Asked: Which viability at 3 day, 10 μM is listed for Nc1ncn([C@H]2C[C@H](O)[C@@H](CO)O2)c(=O)n1 ?
Given back: 93.6

====

- procedure summary: Example 1: cell number (hemocytometer) and viability (trypan blue)
- Assay type: cell-based, Chinese hamster
- condition label: Chinese hamster, 34° C., 1 μM decitabine, day 7
reported endpoint: viability at 7 day, 1 μM (%)
Value expressed in %; do not type the unit.

Asked: Which viability at 7 day, 1 μM is listed for Nc1ncn([C@H]2C[C@H](O)[C@@H](CO)O2)c(=O)n1 [decitabine, 5-aza-2′-deoxycytidine] ?
Given back: 55

====

- procedure summary: Example 1: cell number (hemocytometer) and viability (trypan blue)
- Type: cell-based, Chinese hamster
- condition label: Chinese hamster, 31° C., 10 μM decitabine, day 7
reported endpoint: viability at 7 day, 10 μM (%)
Value expressed in %; do not type the unit.

Asked: Which viability at 7 day, 10 μM is listed for Nc1ncn([C@H]2C[C@H](O)[C@@H](CO)O2)c(=O)n1 ?
Given back: 72.5

====

- procedure summary: Example 2: cell number and viability
- Format: cell-based, Chinese hamster
- condition label: Chinese hamster; 31° C., 0.5 mM butyrate, day 3
reported endpoint: viability at 3 day, 0.5 mM (%)
Value expressed in %; do not type the unit.

Asked: Which viability at 3 day, 0.5 mM is listed for CCCC(=O)[O-].[Na+] [butyrate, sodium butyrate] ?
Given back: 91.7

====

- procedure summary: Example 2: cell number and viability
- Type: cell-based, Chinese hamster
- condition label: Chinese hamster, CHO cell line 25H9 producing IL-1R-II, 30° C., 10 μM decitabine, day 8
reported endpoint: viability at 8 day, 10 μM (%)
Value expressed in %; do not type the unit.

Asked: Which viability at 8 day, 10 μM is listed for Nc1ncn([C@H]2C[C@H](O)[C@@H](CO)O2)c(=O)n1 ?
Given back: 49

====

- procedure summary: Example 1: cell number (hemocytometer) and viability (trypan blue)
- Type: cell-based, Chinese hamster
- condition label: Chinese hamster, 34° C., 5 μM decitabine, day 10
reported endpoint: viability at 10 day, 5 μM (%)
Value expressed in %; do not type the unit.

Asked: Which viability at 10 day, 5 μM is listed for Nc1ncn([C@H]2C[C@H](O)[C@@H](CO)O2)c(=O)n1 ?
Given back: 33.3

====

- procedure summary: Example 2: cell number and viability
- Assay type: cell-based, Chinese hamster
- condition label: Chinese hamster, cell line 25H9 (CHO cells), 32° C., 15 μM decitabine, day 3
reported endpoint: viability at 3 day, 15 μM (%)
Value expressed in %; do not type the unit.

Asked: Which viability at 3 day, 15 μM is listed for Nc1ncn([C@H]2C[C@H](O)[C@@H](CO)O2)c(=O)n1 [decitabine, 5-aza-2′-deoxycytidine] ?
Given back: 87.6
